measurement target: Uba1 (Homo sapiens, UniProt P22314)
Construct: His; host or cells: E. coli BL21(DE3)
test details: Uba1~ubiquitin thioester formation (Uba1, GST-ubiquitin, ATP; silver-stained gels)
Format: biochemical
test settings: Fig. 6; read-out: IC50 (Uba1~Ub)
readout label: pIC50
Please keep in mind that pIC50 is minus log10 of the molar concentration; only the number is needed.

Look up pIC50 for this compound: O=c1c(O)c(-c2cc(O)c(O)c(O)c2)oc2cc(O)cc(O)c12
6.14

----------
System: HEK 293FT cells
test details: Cell survival, Alamar Blue (resazurin) assay
Format: cell-based, human
test settings: 24-h treatment
readout label: Activity on cell viability / survival (in words)

>>> result_value("O=C1c2c(O)cc(O)cc2O[C@H](c2cc(O)c(O)c(O)c2)[C@H]1O [DM, (+)-Dihydromyricetin]")
"very weak activity"
>>> result_value("O=c1c(O)c(-c2cc(O)c(O)c(O)c2)oc2cc(O)cc(O)c12 [Myr, Myricetin]")
"very weak activity"

----------
System: HEK 293FT cells
test details: Cell survival, Alamar Blue (resazurin) assay
Format: cell-based, human
test settings: 24-h treatment
readout label: Activity on cell viability / survival (in words)

>>> result_value("CCCCCCCCOC(=O)c1cc(O)c(O)c(O)c1 [OG, n-Octyl gallate]")
"active"
>>> result_value("CCCCCCCCCCCCOC(=O)c1cc(O)c(O)c(O)c1 [DG, n-Dodecyl gallate]")
"active"

----------
# pIC50 values compiled below
measurement target: Uba1 (Homo sapiens)
Construct: His; host or cells: E. coli BL21(DE3)
Sequence (P22314 1-1058): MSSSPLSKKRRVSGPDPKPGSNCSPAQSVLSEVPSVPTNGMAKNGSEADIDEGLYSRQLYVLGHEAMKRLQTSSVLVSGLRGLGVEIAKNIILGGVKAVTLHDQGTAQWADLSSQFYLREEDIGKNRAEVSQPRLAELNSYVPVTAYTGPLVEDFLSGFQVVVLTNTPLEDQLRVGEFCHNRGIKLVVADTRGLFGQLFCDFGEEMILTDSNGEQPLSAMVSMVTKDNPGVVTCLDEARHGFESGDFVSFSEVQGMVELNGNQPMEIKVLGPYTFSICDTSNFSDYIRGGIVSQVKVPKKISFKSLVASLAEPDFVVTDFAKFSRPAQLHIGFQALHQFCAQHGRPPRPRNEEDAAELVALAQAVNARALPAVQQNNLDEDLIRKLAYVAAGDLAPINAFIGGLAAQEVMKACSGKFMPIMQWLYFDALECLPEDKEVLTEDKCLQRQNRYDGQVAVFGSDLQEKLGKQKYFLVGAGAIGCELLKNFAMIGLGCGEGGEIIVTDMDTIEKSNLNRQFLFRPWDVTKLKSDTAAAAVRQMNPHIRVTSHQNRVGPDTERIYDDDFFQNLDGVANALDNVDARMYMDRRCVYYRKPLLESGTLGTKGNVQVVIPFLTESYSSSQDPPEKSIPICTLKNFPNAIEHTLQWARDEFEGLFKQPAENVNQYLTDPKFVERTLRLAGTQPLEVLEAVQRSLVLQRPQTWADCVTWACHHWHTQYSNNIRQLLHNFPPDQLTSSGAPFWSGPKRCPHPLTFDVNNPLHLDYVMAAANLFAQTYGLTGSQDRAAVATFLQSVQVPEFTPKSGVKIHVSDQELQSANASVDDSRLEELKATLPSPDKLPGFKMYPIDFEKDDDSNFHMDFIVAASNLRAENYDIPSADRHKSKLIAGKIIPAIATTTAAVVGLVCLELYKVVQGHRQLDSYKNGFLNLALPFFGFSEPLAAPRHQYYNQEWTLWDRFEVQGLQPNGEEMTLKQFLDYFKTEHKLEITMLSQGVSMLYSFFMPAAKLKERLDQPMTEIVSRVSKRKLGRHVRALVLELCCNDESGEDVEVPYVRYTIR
test details: Uba1~ubiquitin thioester formation (Uba1, GST-ubiquitin, ATP; silver-stained gels)
Assay type: biochemical
test settings: Uba1 preincubated with compound 15 min, 2 h reaction, 2% DMSO; read-out: IC50 for inhibition of Uba1~ubiquitin thioester formation
Please keep in mind that pIC50 is minus log10 of the molar concentration; only the number is needed.

Look up pIC50 for this compound: CCCCCCCCOC(=O)c1cc(O)c(O)c(O)c1 [OG, n-Octyl gallate]
4.09

Look up pIC50 for this compound: O=C1c2c(O)cc(O)cc2O[C@H](c2cc(O)c(O)c(O)c2)[C@H]1O [DM, (+)-Dihydromyricetin]
4.85

Look up pIC50 for this compound: O=c1c(O)c(-c2cc(O)c(O)c(O)c2)oc2cc(O)cc(O)c12
6.14

Look up pIC50 for this compound: CCCCCCCCCCCCOC(=O)c1cc(O)c(O)c(O)c1 [DG, n-Dodecyl gallate]
4.46
